- assay method text: Pharmacokinetic interaction study, oral administration alone or in combination in rats
- Assay type: in vivo, rat
- settings: rat, plasma, po, 10 mg/kg, LUME 10 mg/kg oral alone (control), rats
- Description: Rats were divided into five groups (n = 5, each); three control groups (LUME 10 mg/kg, oral, suspension in 0.25% Sodium CMC; PPQ 50 mg/kg, oral, solution in triple distilled water; and 99–411 70 mg/kg, oral, suspension in 0.25% Sodium CMC) and two co-administration group (70 mg/kg of oral 99–411 & 10 mg/kg of oral LUME; and 70 mg/kg of oral 99–411 & 50 mg/kg of oral PPQ). […] The relative bioavailability (RB%) was calculated according to equation 1 as follows: […]
quantity name: AUC(0-inf) (ng·h/mL)
The figure you give is taken to be in ng·h/mL; do not add the unit.

Exam item: Give the measured AUC(0-inf) for CCCCN(CCCC)CC(O)c1cc(Cl)cc2c1-c1ccc(Cl)cc1/C2=C/c1ccc(Cl)cc1 (stereo not shown)
Marked response: 17400

---

- assay method text: Pharmacokinetic interaction study, oral administration alone or in combination in rats
- Assay type: in vivo, rat
- settings: rat, plasma, po, 50 mg/kg, PPQ 50 mg/kg oral alone (control), rats
quantity name: half-life (h)
Quick reminder: number only, in h, skip the unit.

Exam item: Please report half-life for the following compound: Clc1ccc2c(N3CCN(CCCN4CCN(c5ccnc6cc(Cl)ccc56)CC4)CC3)ccnc2c1 [PPQ, piperaquine]
Marked response: 21.4

---

- assay method text: Pharmacokinetic interaction study, oral administration alone or in combination in rats
- Assay type: in vivo, rat
- settings: rat, plasma, po, PPQ 50 mg/kg oral co-administered with 99–411 70 mg/kg, rats
quantity name: Tmax (h)
Kindly answer with a numeric value in h, unit omitted.

Exam item: Give Tmax for the following molecule: `Clc1ccc2c(N3CCN(CCCN4CCN(c5ccnc6cc(Cl)ccc56)CC4)CC3)ccnc2c1`
Marked response: 6

---

- assay method text: Pharmacokinetic interaction study, oral administration alone or in combination in rats
- Type: in vivo, rat
- settings: rat, plasma, po, 10 mg/kg, LUME 10 mg/kg oral alone (control), rats
quantity name: half-life (h)
Please give a number only; it is taken to be in h.

Exam item: Note half-life for the molecule shown: CCCCN(CCCC)CC(O)c1cc(Cl)cc2c1-c1ccc(Cl)cc1/C2=C/c1ccc(Cl)cc1 (stereo not shown) [LUME, lumefantrine]
Marked response: 46.9

---

- assay method text: Pharmacokinetic interaction study, oral administration alone or in combination in rats
- Assay type: in vivo, rat
- settings: rat, plasma, po, 10 mg/kg, LUME 10 mg/kg oral alone (control), rats
quantity name: Tmax (h)
Give just the number in h; leave the unit off.

Exam item: Answer with the recorded Tmax of CCCCN(CCCC)CC(O)c1cc(Cl)cc2c1-c1ccc(Cl)cc1/C2=C/c1ccc(Cl)cc1 (stereo not shown) [LUME, lumefantrine] only.
Marked response: 3.75

---

- assay method text: Pharmacokinetic interaction study, oral administration alone or in combination in rats
- Assay type: in vivo, rat
- settings: rat, plasma, po, 50 mg/kg, PPQ 50 mg/kg oral alone (control), rats n=5, mean ± SD
- Procedure: Rats were divided into five groups (n = 5, each); three control groups (LUME 10 mg/kg, oral, suspension in 0.25% Sodium CMC; PPQ 50 mg/kg, oral, solution in triple distilled water; and 99–411 70 mg/kg, oral, suspension in 0.25% Sodium CMC) and two co-administration group (70 mg/kg of oral 99–411 & 10 mg/kg of oral LUME; and 70 mg/kg of oral 99–411 & 50 mg/kg of oral PPQ). […] The relative bioavailability (RB%) was calculated according to equation 1 as follows: […]
quantity name: AUC(0-t) (ng·h/mL)
Return type: number; implicit unit ng·h/mL.

Exam item: Item `Clc1ccc2c(N3CCN(CCCN4CCN(c5ccnc6cc(Cl)ccc56)CC4)CC3)ccnc2c1` : provide AUC(0-t)
Marked response: 28100

// data source = paper PMC4658560
